Assign pIC50 to each entry below.
- TARGET_UNDER_TEST: human C5aR(CD88) (Homo sapiens)
- Construct: expressed in transfected cells; host or cells: rat basophilic leukemia cells (RBL)
- ASSAY_PROTOCOL: Determination of the IC50 value in an enzyme release assay (functional assay, antagonistic activity)
- Assay type: cell-based
- CONDITION_DETAILS: antagonistic activity; IC50 group in enzyme release assay, RBL cells expressing human C5aR(CD88); read-out: activity (group)
pIC50: −log10 of the molar value. Non-standard residues stand in square brackets, D forms with d. Residues, ends and D or L forms follow the SMILES beside them. *: point of attachment. Phe(3,4-F2) = N[C@@H](Cc1ccc(F)c(F)c1)C(=O)O; Bta = N[C@@H](Cc1csc2ccccc12)C(=O)O; dCha = N[C@H](CC1CCCCC1)C(=O)O; Orn = NCCC[C@H](N)C(=O)O; Piv = CC(C)(C)C(=O)*

COMPOUND	RESULT
CC(=O)N[C@@H](Cc1ccccc1)C(=O)N[C@@H](CCCN)C(=O)N1CCC[C@H]1C(=O)N[C@H](CC1CCCCC1)C(=O)N[C@@H](Cc1csc2ccccc12)C(=O)N[C@@H](Cc1ccc(F)c(F)c1)C(N)=O [Compound 251, Ac-Phe-Orn-Pro-cha-Bta-Dff-NH2] (Ac-F[Orn]P[dCha][Bta][Phe(3,4-F2)]-NH2)	7.30 to 7.70

Kindly indicate its recorded pIC50. Item: CC(C)(C)C(=O)N[C@@H](Cc1ccccc1)C(=O)N[C@@H](CCCN)C(=O)N1CCC[C@H]1C(=O)N[C@H](CC1CCCCC1)C(=O)N[C@@H](Cc1csc2ccccc12)C(=O)N[C@@H](Cc1ccccc1)C(N)=O [Compound 134, ^tBu-CO-Phe-Orn-Pro-cha-Bta-Phe-NH2] (Piv-F[Orn]P[dCha][Bta]F-NH2)
6.70 to 7.30

* * *

Assign IC50 to each entry below.
- TARGET_UNDER_TEST: human C5aR(CD88) (Homo sapiens, UniProt P21730)
- Construct: expressed in transfected cells; host or cells: rat basophilic leukemia cells (RBL)
- ASSAY_PROTOCOL: Determination of the IC50 value in an enzyme release assay (functional assay, antagonistic activity)
- Format: cell-based
- CONDITION_DETAILS: antagonistic activity; IC50 group in enzyme release assay, RBL cells expressing human C5aR(CD88); read-out: activity (group)
Starred links: 1 amine or outer side, 2 acyl side, 3 side chain; linkers in the order of their positions; H or OH if unused. Positions of bridges follow the written chain, without caps; N, C: chain ends. Non-standard residues stand in square brackets, D forms with d. Residues, ends and D or L forms follow the SMILES beside them. ξ: configuration not given here. *: point of attachment. ξTrp(5-Me) = Cc1ccc2[nH]cc(CC(N)C(=O)O)c2c1; X3 = O=C([C@H](CCNC1=NCCN1)N[*:1])[*:2]; Phe(2-Cl) = N[C@@H](Cc1ccccc1Cl)C(=O)O; Bta = N[C@@H](Cc1csc2ccccc12)C(=O)O; d(hLeu) = CC(C)CC[C@@H](N)C(=O)O; 2Thi = N[C@@H](Cc1cccs1)C(=O)O; dCha = N[C@H](CC1CCCCC1)C(=O)O; X23 = O=C(CC(O)c1ccccc1)*; hSer = N[C@@H](CCO)C(=O)O; Nle = CCCC[C@H](N)C(=O)O; Orn = NCCC[C@H](N)C(=O)O; Propionyl = CCC(=O)*

MOLECULE	RESULT
CCC(=O)N[C@@H](Cc1ccccc1)C(=O)N[C@@H](CCCN)C(=O)N1CCC[C@H]1C(=O)N[C@H](CC1CCCCC1)C(=O)N[C@@H](Cc1csc2ccccc12)C(=O)N[C@@H](Cc1ccccc1)C(N)=O [Compound 316, CH3CH2CO-Phe-Orn-Pro-cha-Bta-Phe-NH2] (Propionyl-F[Orn]P[dCha][Bta]F-NH2)	20 to 50 nM
CC(=O)N[C@@H](Cc1ccccc1)C(=O)N[C@@H](CCCN)C(=O)N1CCC[C@H]1C(=O)N[C@H](CCC(C)C)C(=O)NC(Cc1c[nH]c2ccc(C)cc12)C(=O)N[C@@H](Cc1ccccc1)C(N)=O (stereo partly drawn) [Compound 285, Ac-Phe-Orn-Pro-hle-Egc-Phe-NH2] (Ac-F[Orn]P[d(hLeu)][ξTrp(5-Me)]F-NH2)	50 to 200 nM
CC(=O)N[C@@H](Cc1ccccc1)C(=O)N[C@@H](CCNC1=NCCN1)C(=O)N1CCC[C@H]1C(=O)N[C@H](CC1CCCCC1)C(=O)N[C@@H](Cc1csc2ccccc12)C(=O)N[C@@H](Cc1ccccc1)C(N)=O [Compound 220, Ac-Phe-Fcn-Pro-cha-Bta-Phe-NH2] (Ac-F[X3]P[dCha][Bta]F-NH2)	10 to 20 nM

The following molecules each have a reported value; give each one's IC50.
1. CC(=O)N[C@@H](Cc1cccs1)C(=O)N[C@@H](CCCN)C(=O)N1CCC[C@H]1C(=O)N[C@H](CC1CCCCC1)C(=O)N[C@@H](Cc1c[nH]c2ccccc12)C(=O)N[C@@H](Cc1ccccc1)C(N)=O [Compound 77, Ac-Thi-Orn-Pro-cha-Trp-Phe-NH2] (Ac-[2Thi][Orn]P[dCha]WF-NH2)
2. CC(=O)N[C@@H](Cc1ccccc1)C(=O)N[C@@H](CCCN)C(=O)N[C@@H](CCO)C(=O)N[C@H](CC1CCCCC1)C(=O)N[C@@H](Cc1csc2ccccc12)C(=O)N[C@@H](Cc1ccccc1)C(N)=O [Compound 243, Ac-Phe-Orn-Hse-cha-Bta-Phe-NH2] (Ac-F[Orn][hSer][dCha][Bta]F-NH2)
3. CCCC[C@@H]1NC(=O)[C@H](Cc2c[nH]c3ccccc23)NC(=O)[C@@H](CC2CCCCC2)NC(=O)[C@@H]2CCCN2C(=O)[C@@H](NC(=O)CC(O)c2ccccc2)CCCNC1=O (stereo partly drawn) [Compound 59, Ph-CH(OH)—CH2—CO-[Orn-Pro-cha-Trp-Nle]] (X23-[Orn]P[dCha]W[Nle]; lactam 1-C)
4. CCCC[C@@H]1NC(=O)[C@H](Cc2ccccc2Cl)NC(=O)[C@@H](CCC(C)C)NC(=O)[C@H](CO)NC(=O)[C@@H](NC(=O)[C@@H](N)Cc2ccccc2)CCCNC1=O [Compound 386, H-Phe-[Orn-Ser-hle-Ocf-Nle]] (H-F[Orn]S[d(hLeu)][Phe(2-Cl)][Nle]; lactam 2-C)

1. 50 to 200 nM
2. 50 to 200 nM
3. 20 to 50 nM
4. 50 to 200 nM

* * *

- TARGET_UNDER_TEST: human C5aR(CD88) (Homo sapiens, UniProt P21730)
- Construct: expressed in transfected cells; host or cells: rat basophilic leukemia cells (RBL)
- Sequence (P21730 1-350): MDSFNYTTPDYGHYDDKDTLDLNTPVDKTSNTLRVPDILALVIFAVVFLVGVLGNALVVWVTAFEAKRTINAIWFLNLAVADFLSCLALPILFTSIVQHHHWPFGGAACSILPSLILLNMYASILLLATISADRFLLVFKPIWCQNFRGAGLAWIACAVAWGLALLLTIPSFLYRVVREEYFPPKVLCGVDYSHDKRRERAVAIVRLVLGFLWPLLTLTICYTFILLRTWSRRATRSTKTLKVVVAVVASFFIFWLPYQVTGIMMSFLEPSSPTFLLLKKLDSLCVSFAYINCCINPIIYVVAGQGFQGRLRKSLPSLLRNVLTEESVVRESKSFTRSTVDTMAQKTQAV
- ASSAY_PROTOCOL: Determination of the IC50 value in an enzyme release assay (functional assay, antagonistic activity)
- Type: cell-based
- CONDITION_DETAILS: antagonistic activity; IC50 group in enzyme release assay, RBL cells expressing human C5aR(CD88); read-out: activity (group)
pIC50: −log10 of the molar value. Positions of bridges follow the written chain, without caps; N, C: chain ends. Non-standard residues stand in square brackets, D forms with d. Residues, ends and D or L forms follow the SMILES beside them. *: point of attachment. Phe(3-Cl) = N[C@@H](Cc1cccc(Cl)c1)C(=O)O; NMe2Phe = CN(C)[C@@H](Cc1ccccc1)C(=O)*; Bta = N[C@@H](Cc1csc2ccccc12)C(=O)O; Hyp = O=C(O)[C@@H]1C[C@@H](O)CN1; d(hLeu) = CC(C)CC[C@@H](N)C(=O)O; Cit = NC(=O)NCCC[C@H](N)C(=O)O; dCha = N[C@H](CC1CCCCC1)C(=O)O; NMeS = CN[C@@H](CO)C(=O)O; Nle = CCCC[C@H](N)C(=O)O; Orn = NCCC[C@H](N)C(=O)O; X18 = c1cc(C*)ccn1
READOUT_NAME: pIC50

Examples with answers:
COMPOUND	pIC50
CCCC[C@@H]1NC(=O)[C@H](Cc2c[nH]c3ccccc23)NC(=O)[C@@H](CC2CCCCC2)NC(=O)[C@@H]2CCCN2C(=O)[C@@H](NC(=O)[C@H](Cc2ccccc2)N(C)C)CCCNC1=O [Compound 331, Fbp-[Orn-Pro-cha-Trp-Nle]] (NMe2Phe-[Orn]P[dCha]W[Nle]; lactam 1-C)	6.70 to 7.30
CC(=O)N[C@@H](Cc1ccccc1)C(=O)N[C@@H](CCCNC(N)=O)C(=O)N[C@@H](CO)C(=O)N[C@H](CCC(C)C)C(=O)N[C@@H](Cc1csc2ccccc12)C(=O)N[C@@H](Cc1ccccc1)C(N)=O [Compound 212, Ac-Phe-Cit-Ser-hle-Bta-Phe-NH2] (Ac-F[Cit]S[d(hLeu)][Bta]F-NH2)	6.70 to 7.30
CCCC[C@@H]1NC(=O)[C@H](Cc2c[nH]c3ccccc23)NC(=O)[C@@H](CC2CCCCC2)NC(=O)[C@H](CO)N(C)C(=O)[C@@H](NC(=O)[C@@H](N)Cc2ccccc2)CCCNC1=O [Compound 372, H-Phe-[Orn-NMS-cha-Trp-Nle]] (H-F[Orn][NMeS][dCha]W[Nle]; lactam 2-C)	6.70 to 7.30
CC(=O)N[C@@H](Cc1ccccc1)C(=O)N[C@@H](CCCNC(=N)N)C(=O)N1CCC[C@H]1C(=O)N[C@H](CCC(C)C)C(=O)N[C@@H](Cc1csc2ccccc12)C(=O)N[C@@H](Cc1ccccc1)C(N)=O [Compound 207, Ac-Phe-Arg-Pro-hle-Bta-Phe-NH2] (Ac-FRP[d(hLeu)][Bta]F-NH2)	6.70 to 7.30
CC(=O)N[C@@H](Cc1ccccc1)C(=O)N[C@H]1CCCNC(=O)[C@H](CSCc2ccncc2)NC(=O)[C@H](Cc2c[nH]c3ccccc23)NC(=O)[C@@H](CC2CCCCC2)NC(=O)[C@@H]2CCCN2C1=O [compound 15] (Ac-F[Orn]P[dCha]WC(X18); lactam 2-C)	5.70 to 6.70

The following compounds each have a reported value; give each one's pIC50.
1. CC(=O)N[C@@H](Cc1ccccc1)C(=O)N[C@H]1CCCNC(=O)[C@H](C)NC(=O)[C@H](Cc2c[nH]c3ccccc23)NC(=O)[C@@H](CC2CCCCC2)NC(=O)[C@@H]2CCCN2C1=O [Compound 39] (Ac-F[Orn]P[dCha]WA; lactam 2-C)
2. CC(=O)N[C@@H](Cc1ccccc1)C(=O)N[C@H]1CCCNC(=O)[C@H](Cc2ccccc2)NC(=O)[C@H](Cc2cccc(Cl)c2)NC(=O)[C@@H](CCC(C)C)NC(=O)[C@@H]2C[C@@H](O)CN2C1=O [Compound 178, Ac-Phe-[Orn-Hyp-hle-Mcf-Phe]] (Ac-F[Orn][Hyp][d(hLeu)][Phe(3-Cl)]F; lactam 2-C)

["< 5.70", "6.70 to 7.30"]

Reference for the values: patent US20080161232A1
